Measured TGI, listed per entry.
Tested on: NCI-H226 lung
Assay: NCI tumour cell line growth inhibition, 48 h
QUANTITY MEASURED: TGI

| MOLECULE | QUANTITY MEASURED | RECORDED VALUE |
| --- | --- | --- |
| COc1cc(OC)c(CSCC(NC(=O)OCC2c3ccccc3-c3ccccc32)C(=O)O)c(OC)c1 (stereo unspecified) | TGI | > 10 µM |
| Oc1c2cccc1Cc1cccc3c1OCCOCCOCCOCCOc1c(cccc1Cc1cccc(c1O)C3)C2 | TGI | 81 µM |
| Cc1ccc(C2=Nc3c(N)ncnc3NC(c3cccc(Nc4ccnc5cc(C(F)(F)F)ccc45)c3)C2)cc1 (stereo unspecified) | TGI | > 100 µM |
| COC(=O)c1cc(Nc2ccc(O)c3c2C(=O)c2c([N+](=O)[O-])ccc(O)c2C3=O)cc(C(=O)OC)c1 | TGI | > 100 µM |
| CCOP(=O)(OCC)/C(C#N)=C\c1cccc2ccccc12 | TGI | > 73.8 µM |
| CC(C)(C)n1cc(-c2ccnc(NCCNS(=O)(=O)c3ccc(Br)cc3)c2)c(-c2cccc(O)c2)n1 | TGI | 5.32 µM |
| O=C(c1ccccc1F)c1c(NCc2ccccc2)c(=O)c1=O | TGI | > 100 µM |
| COC(=O)C(CC=O)C(=O)C(=O)Nc1cccc(C(F)(F)F)c1 (stereo unspecified) | TGI | > 100 µM |
| C=C[C@]1(C)CC[C@]2(C)C(CC[C@@]3(C)C2C[C@H](O)[C@H](O)[C@@]3(C)O)C1 (stereo partly specified) | TGI | > 100 µM |
| CN1CC2(CCCCC2)C(O)C12C=CCCC2 (stereo unspecified) | TGI | > 100 µM |
| O=C1c2ccccc2S(=O)(=O)c2ccccc21 | TGI | > 100 µM |
| CN(C)CCCn1c2ccccc2c2cnccc21 | TGI | 59.7 µM |
| CC1=NN(c2ccc(C)cc2)C2(C1)SCC(=O)N2c1nc2ccccc2s1 (stereo unspecified) | TGI | 47 µM |
| O=C1NC(=O)/C(=C\c2ccncc2)N1 | TGI | > 100 µM |
| Cc1cc(N(CCC#N)S(=O)(=O)c2ccccc2)ccc1C=O | TGI | > 100 µM |
| COC(=O)Cc1c(C2=Nc3ccccc3C2(O)CC(=O)OC)[nH]c2ccccc12 (stereo unspecified) | TGI | > 100 µM |
| COc1cn2c(cc1=O)COc1ccc(-c3ccccc3)cc1-2 | TGI | > 100 µM |
| CC1OC(=O)N(CCCC=C2SCCCS2)C1=O (stereo unspecified) | TGI | > 100 µM |
| COc1ccccc1Cn1cc2c(c1)-c1oncc1CC2 | TGI | > 100 µM |
| CC(C)OP(=O)(OC(C)C)C(N(C)C)P(=O)(OC(C)C)OC(C)C.[Cl][Sn]([Cl])([Cl])[c]1ccccc1 | TGI | 9.69 µM |
| CC(C)OP(=O)(CP(=O)(OC(C)C)OC(C)C)OC(C)C.[CH3][Sn]([Br])([Br])[Br] | TGI | > 100 µM |

---

Tested on: TK-10 renal
Assay: NCI tumour cell line growth inhibition, 48 h
QUANTITY MEASURED: GI50

| COMPOUND | RECORDED VALUE |
| --- | --- |
| O=C(/C=C/N1CCN(c2cccc(C(F)(F)F)c2)CC1)c1ccc(Cl)cc1Cl | 30.1 µM |
| COc1ccccc1C1C(C#N)=C(N)OC2=C1C(=O)CCC2 (stereo not drawn) | > 100 µM |
| COc1ccc(C[C@H]2C[C@@H](O)[C@@H](C)C/C=C/Cc3cccc(O)c3C(=O)O2)cn1 | 24.5 µM |
